Source listed as patent US5200309A.

- PROTOCOL DESCRIPTION: Potentiometric titration of dispersion pKa of couplers (two-phase aqueous dispersion)
- Format: physicochemical
- APPLIED CONDITIONS: coupler solvent S2, coupler:solvent weight ratio 1:2, 0.50 M potassium
MEASUREMENT LABEL: pKa(0.5M K+)

CCCCCCCCCCCCNS(=O)(=O)c1ccc(NC2=NN(c3c(Cl)cc(Cl)cc3Cl)C(=O)C2Sc2cc(C(C)(C)CC(C)(C)C)ccc2OCCCC)c(Cl)c1 (stereo not shown) [Coupler M1] :: 8.5
CCCCCCCCCCCCCCCCCCNS(=O)(=O)c1ccc(Cl)c(NC2=NN(c3c(Cl)cc(Cl)cc3Cl)C(=O)C2Sc2cc(C(C)C)ccc2C(C)C)c1 (stereo not shown) [Coupler M20] :: 8.4
CCCCCCCCCCCCCCCC(=O)Nc1ccc(Cl)c(NC2=NN(c3c(Cl)c(Cl)c(Cl)c(Cl)c3Cl)C(=O)C2Sc2ccccc2NC(=O)OCc2ccccc2)c1 (stereo not shown) [Coupler M7] :: 7.5
CCCCCCCCCCCCNS(=O)(=O)c1ccc(NC2=NN(c3c(Cl)cc(Cl)cc3Cl)C(=O)C2Sc2ccccc2NC(=O)CCCCCCCCCCC)c(Cl)c1 (stereo not shown) [Coupler M8] :: 7.9
